Target: Glucocorticoid Receptor (Homo sapiens, UniProt P04150)
Construct: These cells express large amount of the GR and are very responsive to GC treatment; endogenous in cells; host or cells: A549 cells transiently transfected with the MMTV-LUC reporter
Assay: Trans-Activation Modulation of Glucocorticoid Receptor (GRAMMER), MMTV-LUC reporter gene in A549 cells
Assay type: cell-based
Conditions: inflection point; A549 cells; Table 1; read-out: Transactivation A549 Cells GRAMMER IP
pEC50: −log10 of the molar value.

Molecule	pEC50
CN(CC#N)C(=O)[C@H]1CCC2=Cc3c(cnn3-c3ccc(F)cc3)C[C@@]21C [Compound 41]	5.39
Cc1ccc(CCN(CC(O)CC(F)(F)F)C(=O)[C@H]2CCC3=Cc4c(cnn4-c4ccc(F)cc4)C[C@@]32C)cc1 (stereo partly drawn) [Compound 85]	6.40
C[C@]12Cc3cnn(-c4ccc(F)cc4)c3C=C1CC[C@@H]2C(=O)N1CCCCC1Cc1ccccc1 (stereo partly drawn) [Compound 22]	6.41
C[C@]12Cc3cnn(-c4ccc(F)cc4)c3C=C1CC[C@@H]2C(=O)N(CCc1ccccc1F)CC(O)C(F)(F)F (stereo partly drawn) [Compound 92]	6.55
CN(CC(O)C(F)(F)F)C(=O)[C@H]1CCC2=Cc3c(cnn3-c3ccccc3)C[C@@]21C (stereo partly drawn) [Compound 74]	6.56
CC(C)CN(CC(O)C(F)(F)F)C(=O)[C@H]1CCC2=Cc3c(cnn3-c3ccccc3)C[C@@]21C (stereo partly drawn) [Compound 80]	6.65
CC1CN(C(=O)[C@H]2CCC3=Cc4c(cnn4-c4ccc(F)cc4)C[C@@]32C)CC(C)O1 (stereo partly drawn) [Compound 17]	6.28
CCCN(CCC)C(=O)[C@H]1CCC2=Cc3c(cnn3-c3ccc(F)cc3)C[C@@]21C [Compound 1]	6.75
CCCN(C(=O)[C@H]1CCC2=Cc3c(cnn3-c3ccc(F)cc3)C[C@@]21C)C(C)CC (stereo partly drawn) [Compound 16]	6.74

====

Target: glucocorticoid receptor (GR) (Homo sapiens, UniProt P04150)
Sequence (P04150 1-777): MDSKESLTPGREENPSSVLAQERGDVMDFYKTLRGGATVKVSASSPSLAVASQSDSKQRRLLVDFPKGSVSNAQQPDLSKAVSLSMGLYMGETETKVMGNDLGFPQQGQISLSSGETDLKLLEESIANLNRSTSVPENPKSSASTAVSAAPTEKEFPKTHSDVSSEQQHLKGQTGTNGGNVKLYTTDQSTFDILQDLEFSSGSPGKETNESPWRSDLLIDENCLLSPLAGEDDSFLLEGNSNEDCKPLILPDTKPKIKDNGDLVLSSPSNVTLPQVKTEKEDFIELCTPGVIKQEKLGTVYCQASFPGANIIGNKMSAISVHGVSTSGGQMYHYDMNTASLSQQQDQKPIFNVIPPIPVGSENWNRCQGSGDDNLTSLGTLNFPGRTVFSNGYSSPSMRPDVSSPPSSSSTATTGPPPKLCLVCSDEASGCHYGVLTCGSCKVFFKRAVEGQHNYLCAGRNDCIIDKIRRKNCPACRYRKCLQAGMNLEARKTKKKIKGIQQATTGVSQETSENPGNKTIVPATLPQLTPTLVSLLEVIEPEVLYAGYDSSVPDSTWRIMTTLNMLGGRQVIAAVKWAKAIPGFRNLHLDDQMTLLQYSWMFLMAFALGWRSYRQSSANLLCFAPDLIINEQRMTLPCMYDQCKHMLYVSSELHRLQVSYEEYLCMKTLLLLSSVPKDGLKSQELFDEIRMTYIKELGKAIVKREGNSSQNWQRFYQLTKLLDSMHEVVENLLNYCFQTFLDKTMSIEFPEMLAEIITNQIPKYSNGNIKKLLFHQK
Assay: Ligand binding assay (GR BIND), 3H-dexamethasone displacement in MDA-MB-453 cell lysate
Conditions: GR BIND Ki, Table 1
Measured Property: log10 of Ki (log10 of the value in nM)

Molecule	Study Target	Value Reported
C[C@]12Cc3cnn(-c4ccc(F)cc4)c3C=C1CC[C@@H]2C(=O)N(CCO)Cc1cccc(F)c1 [Compound 33]	glucocorticoid receptor (GR) (Homo sapiens, UniProt P04150)	0.89
CCCCN(CCO)C(=O)[C@H]1CCC2=Cc3c(cnn3-c3ccc(F)cc3)C[C@@]21C [Compound 26]	glucocorticoid receptor (GR) (Homo sapiens, UniProt P04150)	1.21
C[C@]12Cc3cnn(-c4ccc(F)cc4)c3C=C1CC[C@@H]2C(=O)N1CCCC(Cc2cccc(C(F)(F)F)c2)C1 (stereo partly shown) [Compound 21]	glucocorticoid receptor (GR) (Homo sapiens, UniProt P04150)	0.36
C[C@H](O)CN(CCC(F)(F)F)C(=O)[C@H]1CCC2=Cc3c(cnn3-c3ccc(F)cc3)C[C@@]21C [Compound 73]	glucocorticoid receptor (GR) (Homo sapiens, UniProt P04150)	0.32
C[C@]12Cc3cnn(-c4ccc(F)cc4)c3C=C1CC[C@@H]2C(=O)N(CCO)CC(=O)c1coc2ccccc12 [Compound 29]	glucocorticoid receptor (GR) (Homo sapiens, UniProt P04150)	1.59
C[C@]12Cc3cnn(-c4ccc(F)cc4)c3C=C1CC[C@@H]2C(=O)N(CCO)CCc1ccccc1 [Compound 35]	glucocorticoid receptor (GR) (Homo sapiens, UniProt P04150)	1.17
Cc1ccc(CCN(CC(O)CC(F)(F)F)C(=O)[C@H]2CCC3=Cc4c(cnn4-c4ccc(F)cc4)C[C@@]32C)cc1 (stereo partly shown) [Compound 85]	glucocorticoid receptor (GR) (Homo sapiens, UniProt P04150)	0.54
C[C@]12Cc3cnn(-c4ccc(F)cc4)c3C=C1CC[C@@H]2C(=O)N(CCO)c1ccccc1 [Compound 68]	glucocorticoid receptor (GR) (Homo sapiens, UniProt P04150)	0.58
C[C@]12Cc3cnn(-c4ccc(F)cc4)c3C=C1CC[C@@H]2C(=O)N(CCc1ccccc1F)CC(O)C(F)(F)F (stereo partly shown) [Compound 92]	glucocorticoid receptor (GR) (Homo sapiens, UniProt P04150)	0.18
CC(O)CN(CC(C)O)C(=O)[C@H]1CCC2=Cc3c(cnn3-c3ccc(F)cc3)C[C@@]21C (stereo partly shown) [Compound 10]	glucocorticoid receptor (GR) (Homo sapiens, UniProt P04150)	0.26

====

Molecular target: UniProt:P04150
Assay: Ligand binding assay (GR BIND), 3H-dexamethasone displacement in MDA-MB-453 cell lysate
Conditions: GR BIND Ki, Table 1
pKi: −log10 of the molar value.

Compound	pKi
C[C@]12Cc3cnn(-c4ccc(F)cc4)c3C=C1CC[C@@H]2C(=O)N(CCc1ccccc1)Cc1ccccc1	8.72
COC[C@H]1CCCN1C(=O)[C@H]1CCC2=Cc3c(cnn3-c3ccc(F)cc3)C[C@@]21C	7.30
CCNC(=O)CN(CCc1ccccc1)C(=O)[C@H]1CCC2=Cc3c(cnn3-c3ccc(F)cc3)C[C@@]21C	8.33
C[C@]12Cc3cnn(-c4ccc(F)cc4)c3C=C1CC[C@@H]2C(=O)N(CCc1ccccc1F)CC(O)CC(F)(F)F (stereo partly shown) [Compound 94]	8.74

Source listed as patent US8338472B2.
